assay: ATG_NRF2_ARE_CIS: Attagene CIS-FACTORIAL HepG2 Assay for human Nuclear Factor Erythroid 2 Related Factor 2 (NFR2) response to Antioxidant Response Elements (ARE) (AID 2282992); settings: HepG2 Attagene ARE/NRF2 reporter, transcription factor activity; actives raise or lower the signal
Activity calls are given as the source filed them. How the source made its calls: active means hit-call score of the fitted dose curve at least 0.9, where 1 is the maximum; inactive means score below 0.9.
Can you answer with just one of these options? yes (1) (active), no (0) (inactive)

compound: Cc1occc(=O)c1OC(=O)C(C)C
answer-label: no (0)
//
compound: C=C(C)[C@H]1CC=C(C)C(=O)C1
answer-label: no (0)

What was the test verdict on CCOc1ccc(NC(=O)CC(C)=O)cc1 ?
no (0)

Called result for OCC#CCO
no (0)

Hi, sorry to bother you, what did the test record for C=C(CC(=O)O)C(=O)O ?
no (0)

How was Brc1ccc(Br)c(Br)c1 classified in this test?
no (0)

State the result this test recorded for [Cl][Au]([Cl])[Cl] .
yes (1)

Kindly provide the recorded test outcome for the following compound: CC(C)(C)OC(=O)c1ccc(O)cc1
yes (1)

Test call for this compound, please: CCCCC1(COC(=O)CCC(=O)O)C(=O)N(c2ccccc2)N(c2ccccc2)C1=O
no (0)

How did this test come out for CCCC(O)C(O)CO (stereo unspecified) ?
no (0)

Reference for the values: PubChem BioAssay (EPA / NIEHS)
